- target or test system: µOR (Homo sapiens, UniProt P35372)
- Sequence (P35372 whole entry): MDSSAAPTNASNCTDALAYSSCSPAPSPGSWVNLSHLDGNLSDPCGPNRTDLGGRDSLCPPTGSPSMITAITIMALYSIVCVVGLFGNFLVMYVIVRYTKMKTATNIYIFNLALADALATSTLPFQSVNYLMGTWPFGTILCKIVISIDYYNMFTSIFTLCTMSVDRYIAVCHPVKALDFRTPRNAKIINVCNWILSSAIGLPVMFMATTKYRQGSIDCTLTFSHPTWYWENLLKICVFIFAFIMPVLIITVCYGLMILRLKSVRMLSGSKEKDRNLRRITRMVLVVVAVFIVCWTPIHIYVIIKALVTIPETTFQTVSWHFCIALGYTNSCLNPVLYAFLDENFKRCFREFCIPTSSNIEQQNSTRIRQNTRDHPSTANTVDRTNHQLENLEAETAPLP
- assay: cell-based
- Assay type: cell-based
- assay setup: CHO PathHunter; read-out: β-Arrestin 2 EC50 (nM) µOR
Square brackets hold non-standard residues; d marks the D form. Peptide text beside a SMILES is read from it. 2Pal = N[C@@H](Cc1ccccn1)C(=O)O; 3Pal = N[C@@H](Cc1cccnc1)C(=O)O; 4Pal = N[C@@H](Cc1ccncc1)C(=O)O

# compound, target or test system, EC50 (nM)
records = [
    ("CC(C)C[C@H](NC(=O)[C@H](Cc1ccncc1)NC(=O)CNC(=O)CNC(=O)[C@@H](N)Cc1ccc(O)cc1)C(=O)O [Compound 1l] (H-YGG[4Pal]L-OH; N-terminus and C-terminus assumed)", "µOR (Homo sapiens, UniProt P35372)", 37200),
    ("CC(C)C[C@H](NC(=O)[C@H](Cc1cccnc1)NC(=O)CNC(=O)CNC(=O)[C@@H](N)Cc1ccc(O)cc1)C(=O)O [Compound 1k] (H-YGG[3Pal]L-OH; N-terminus and C-terminus assumed)", "µOR (Homo sapiens, UniProt P35372)", 41700),
    ("CC(C)C[C@H](NC(=O)[C@H](Cc1ccccn1)NC(=O)CNC(=O)CNC(=O)[C@@H](N)Cc1ccc(O)cc1)C(=O)O [Compound 1j] (H-YGG[2Pal]L-OH; N-terminus and C-terminus assumed)", "µOR (Homo sapiens, UniProt P35372)", 1350),
]
